Measured values drawn from PubChem BioAssay (NCATS) for this set.

Test system: CP266
protocol-notes: qHTS profiling for inhibitors of Plasmodium falciparum proliferation (AID 504749); also: nearly all actives have a fitted effect of over 60% in size
recorded-conditions: P. falciparum in erythrocytes, SYBR Green DNA, 72 h; series mostly up to 28.7 µM
Inconclusive results are not listed. Calls of active or inactive are those of the source. Calls follow the shape of the dose curve; as a rule, active = well fitted inhibition curve with a large enough effect; inconclusive = small, poorly fitted or top-dose-only effect; inactive = flat fitted curve, though single readings scatter.
Write down the outcome that applies. Available outcomes: T (active), F (inactive)

Known results for compounds:
| compound | assigned-label |
| --- | --- |
| C[C@]12CC[C@H]3[C@@H](CC=C4C[C@@H](O)CC[C@@]43C)[C@@H]1CC[C@@H]2O | F |
| COCC(=O)N(c1c(C)cccc1C)C(C)C(=O)OC (stereo unspecified) | F |
| COP(=O)(OC)C(O)C(Cl)(Cl)Cl (stereo unspecified) | F |
| O=c1n(Cl)c(=O)n(Cl)c(=O)n1Cl | F |
| c1ccc2nc(N3CCNCC3)ccc2c1 | F |
| CNC(=O)NC(O)C(Cl)(Cl)Cl (stereo unspecified) | F |

Query :: Tell me the recorded outcome of this test for `CN1C(=O)CN=C(c2ccccc2)c2cc([N+](=O)[O-])ccc21` .
Result :: F

Query :: Tell me the recorded outcome of this test for `NCc1cccnc1` .
Result :: F

Query :: Tell me the recorded outcome of this test for `CN(C)C(=S)SSC(=S)N(C)C` .
Result :: T

Query :: Tell me the recorded outcome of this test for CC(C)C(Br)C(=O)NC(N)=O (stereo unspecified) .
Result :: F

Query :: Tell me the recorded outcome of this test for ClC1=C(Cl)C2(Cl)C(CBr)CC1(Cl)C2(Cl)Cl (stereo unspecified) .
Result :: F

Query :: Tell me the recorded outcome of this test for CCOC(=O)NC(O)C(Cl)(Cl)Cl (stereo unspecified) .
Result :: F

Query :: Tell me the recorded outcome of this test for `Cc1ccc(N=CN(C)C=Nc2ccc(C)cc2C)c(C)c1` .
Result :: F

Query :: Tell me the recorded outcome of this test for `COP(=S)(OC)Oc1ccc(Sc2ccc(OP(=S)(OC)OC)cc2)cc1` .
Result :: F

Query :: Tell me the recorded outcome of this test for `Cc1ncc2n1-c1ccc(Cl)cc1C(c1ccccc1F)=NC2` .
Result :: F

Query :: Tell me the recorded outcome of this test for `CCS(=O)(=O)C(C)(C)S(=O)(=O)CC` .
Result :: F

Query :: Tell me the recorded outcome of this test for `CCC1(CC)C(=O)NC(=O)NC1=O` .
Result :: F

Query :: Tell me the recorded outcome of this test for `CCC(=O)O[C@H]1CC[C@H]2[C@@H]3CCC4=CC(=O)CC[C@]4(C)[C@H]3CC[C@]12C` .
Result :: F

Query :: Tell me the recorded outcome of this test for `C[N+]1(CCC(C(N)=O)(c2ccccc2)c2ccccc2)CCCCC1` .
Result :: F

Query :: Tell me the recorded outcome of this test for `CNC(=O)Oc1cccc2ccccc12` .
Result :: F

Query :: Tell me the recorded outcome of this test for O=C(NC(=O)c1c(F)cccc1F)Nc1cc(Cl)c(OC(F)(F)C(F)C(F)(F)F)cc1Cl (stereo unspecified) .
Result :: F

###

protocol-notes: Primary qHTS for inhibitors of SARS-S pseudo-typed particle cell entry (AID 1479145); also: nearly all actives have a fitted effect of over 45% in size; also: potency is read from the fitted curve at half-maximal effect
recorded-conditions: SARS-S pseudotyped particle cell entry, luciferase reporter; series mostly up to 57.1 µM
Records with an inconclusive call do not appear. Activity calls are given as the source filed them. Calls follow the shape of the full dose curve.
observed-property: Potency

For orientation, consider the following solved cases.
| compound | result |
| --- | --- |
| CC(Cc1ccccc1)NCc1ccccc1Cl (configuration not stated) | inactive |
| NC(=O)CC[C@@H](N)C(=O)O | inactive |
| COc1ccc2[nH]c(S(=O)Cc3ncc(C)c(OC)c3C)nc2n1 (configuration not stated) | 20 µM (active) |
| O=C1c2cccc(O)c2C(=O)c2c(O)cccc21 | inactive |

Query :: Please look at this compound and report its Potency: `CC#C[C@]1(O)CC[C@H]2[C@@H]3C[C@H](C)C4=CC(=O)CC[C@]4(C)[C@H]3CC[C@@]21C`
Result :: 20 µM (active)

Query :: Please look at this compound and report its Potency: CC(O)COc1ccccc1 (configuration not stated)
Result :: inactive

Query :: Please look at this compound and report its Potency: Cc1ccc(C(=O)Oc2ccc(C(O)CNC(C)(C)C)cc2OC(=O)c2ccc(C)cc2)cc1 (configuration not stated)
Result :: inactive

Query :: Please look at this compound and report its Potency: `c1ccc2[nH]c(-c3cscn3)nc2c1`
Result :: inactive

Query :: Please look at this compound and report its Potency: NCC1CCC(C(=O)Oc2ccc(CCC(=O)O)cc2)CC1 (configuration not stated)
Result :: inactive

Query :: Please look at this compound and report its Potency: `Nc1ccc(N=Nc2ccccc2)c(N)n1`
Result :: inactive

Query :: Please look at this compound and report its Potency: `C[C@H]1COc2c(C3(N)CC3)c(F)cc3c(=O)c(C(=O)O)cn1c23`
Result :: inactive

Query :: Please look at this compound and report its Potency: CC(C)(C)c1ccc(C(O)CCCN2CCC(C(O)(c3ccccc3)c3ccccc3)CC2)cc1 (configuration not stated)
Result :: inactive

###

recorded-conditions: Ebola virus entry assay, green fluorescence channel
Potency and affinity values are given separately.
observed-property: efficacy (%)
Report as a plain number; the unit % is understood.

For orientation, consider the following solved cases.
| compound | unit-label | efficacy |
| --- | --- | --- |
| CCN1CCCC1CNC(=O)C(O)(c1ccccc1)c1ccccc1 (stereo unspecified) | % | 28.7 |
| O=C1Cc2cc(Cl)ccc2N1 | % | -20.6 |
| Cc1ccc2c(c1)c1c3n2CCNC3CCC1 (stereo unspecified) | % | 68.3 |
| COC1=C(OC)C(=O)C(CCCCCCCCCCO)=C(C)C1=O | % | 52 |
| C=C1C[C@H]2[C@@H]3C=C(C)C4=CC(=O)CC[C@]4(C)[C@H]3CC[C@]2(C)[C@@]1(OC(C)=O)C(C)=O | % | -35.6 |
| CCCN(CCC)CCc1c[nH]c2ccccc12 | % | 39.8 |
| C[C@]1(Cn2ccnn2)[C@H](C(=O)O)N2C(=O)C[C@H]2S1(=O)=O | % | -31 |
| CCCCC1C(=O)NC(=O)N(C2CCCCC2)C1=O (stereo unspecified) | % | 18.4 |
| Cc1c(C)c2c(c(C)c1OC(=O)CCC(=O)OCCO)CC[C@@](C)(CCC[C@H](C)CCC[C@H](C)CCCC(C)C)O2 | % | -73.4 |
| O=c1n(Cl)c(=O)n(Cl)c(=O)n1Cl | % | -11.8 |

Query :: Please look at this compound and report its efficacy: `C=C1C(=C/C=C2\CCC[C@]3(C)[C@@H]([C@H](C)/C=C/[C@@H](O)C4CC4)CC[C@@H]23)C[C@@H](O)C[C@@H]1O`
Result :: 59.6

Query :: Please look at this compound and report its efficacy: `O=C(CCCN1CCC(O)(c2cccc(C(F)(F)F)c2)CC1)c1ccc(F)cc1`
Result :: 61.9

Query :: Please look at this compound and report its efficacy: `CCN1CCN(c2cc(-c3ccc(F)cc3)c3c(n2)CCCCCC3)CC1`
Result :: 32.1

Query :: Please look at this compound and report its efficacy: Oc1ccc(C(O)CNCCCCCCNCC(O)c2ccc(O)c(O)c2)cc1O (stereo unspecified)
Result :: 16

Query :: Please look at this compound and report its efficacy: COC(=O)C1=C(C)NC(C)=C(C(=O)OC(C)(C)CN(C)CCC(c2ccccc2)c2ccccc2)C1c1cccc([N+](=O)[O-])c1 (stereo unspecified)
Result :: 39.5

Query :: Please look at this compound and report its efficacy: `CCCCCCc1ccc(O)cc1O`
Result :: -21

Query :: Please look at this compound and report its efficacy: `C[C@]12CC[C@H]3[C@@H](CCC4=CC(=O)CC[C@@H]43)[C@@H]1CC[C@@H]2O`
Result :: -8.66

Query :: Please look at this compound and report its efficacy: `CCN(CC)CCOC(=O)C1(c2ccccc2)CCCC1`
Result :: 69.1

Query :: Please look at this compound and report its efficacy: C[C@@H]1CN(C2CCC(C#N)(c3ccc(F)cc3)CC2)CC[C@]1(C(=O)O)c1ccccc1 (stereo partly specified)
Result :: 31.9

Query :: Please look at this compound and report its efficacy: C[N+]12CCC(CC1)C(OC(=O)C(O)(c1ccccc1)c1ccccc1)C2 (stereo unspecified)
Result :: 11.2

Query :: Please look at this compound and report its efficacy: `C[C@@H]1C[C@H]2[C@@H]3CCC4=CC(=O)C=C[C@]4(C)[C@@]3(F)[C@@H](O)C[C@]2(C)[C@@]1(O)C(=O)COC(=O)c1ccncc1`
Result :: 33.7

###

protocol-notes: MultiTox-Fluor Cytotoxicity Assay - LYMP1-003 - Dead Cells (AID 961);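 also: cells exposed to compound for 16 h at 37 °C; nearly all actives have a fitted effect of over 70% in size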
recorded-conditions: LYMP1-003 lymphoblastoid cells, dead-cell protease fluorescence; series mostly up to 92.2 µM
Active and inactive are the calls of the source. Calls follow the shape of the dose curve; as a rule, active = well fitted cell-killing curve with a large enough effect; inconclusive = small, poorly fitted or top-dose-only effect, or effect the other way; inactive = flat fitted curve, though single readings scatter.
Write down the outcome that applies. Available outcomes: active, inactive

Known results for molecules:
| smiles-notation | assigned-label |
| --- | --- |
| CCCCCCCCCCCCCCCC[n+]1ccccc1 | active |
| Oc1c(Br)cc(Br)cc1Br | inactive |
| COC(=O)C1=C(C)NC(C)=C(C(=O)OC)C1c1ccccc1[N+](=O)[O-] | active |

Query :: Tell me the recorded outcome of this test for `O=C(CCl)c1ccc(Cl)cc1Cl` .
Result :: active

Query :: Tell me the recorded outcome of this test for `CN(C)C(=S)SSC(=S)N(C)C` .
Result :: active

Query :: Tell me the recorded outcome of this test for `CN(C)c1ccc(C(=C2C=CC(=[N+](C)C)C=C2)c2ccc(N(C)C)cc2)cc1` .
Result :: active
